- Tested on: CCRIS mutagenicity, Ames/micronucleus/aberration tests
- experiment.notes: CCRIS mutagenicity studies
- measurement.context: Test System: AMES SALMONELLA TYPHIMURIUM; Strain/Indicator: TA1535; Metabolic Activation: NONE; Method: STANDARD PLATE
Activity calls are given as the source filed them. No rule for the calls is given here.
The categories you may choose from are active, inactive

COC(=O)c1ccc(C(=O)OC)cc1	inactive
Nc1cccc2c(N)cccc12	inactive
COc1cccc2c1cc([N+](=O)[O-])c1c(C(=O)O)cc3c(c12)OCO3	active

Record request — test call for Cc1ccc(NCCO)cc1O
inactive

Record request — test call for [O]=[Cr](=[O])([OH])[O][Cr](=[O])(=[O])[OH]
inactive

* * *

- System: CCRIS mutagenicity, Ames/micronucleus/aberration tests
- experiment.notes: CCRIS mutagenicity studies
- measurement.context: Test System: AMES SALMONELLA TYPHIMURIUM; Strain/Indicator: TA98; Metabolic Activation: NONE; Method: STANDARD PLATE
Calls of active or inactive are those of the source. How the calls were made is not given here.
The categories you may choose from are T for active, F for inactive

Before answering, review these 5 worked examples.
CO[C@]1(CC[C@@H](C)CO[C@@H]2O[C@H](CO)[C@@H](O)[C@H](O)[C@H]2O)O[C@H]2C[C@H]3[C@@H]4CC=C5C[C@@H](O[C@@H]6O[C@H](CO)[C@@H](O)[C@H](O[C@@H]7O[C@H](CO)[C@@H](O)[C@H](O)[C@H]7O)C6O[C@@H]6O[C@@H](C)[C@H](O)[C@@H](O)[C@H]6O)CC[C@]5(C)[C@H]4CC[C@]3(C)[C@H]2[C@@H]1C (stereo not given in full)	F
CCOC(=O)CC(=O)CCl	F
Oc1c(Br)cc(Br)cc1Br	F
Cn1c2ccccc2c(=O)c2c(O)cc3c(c21)CC(C(C)(O)CCl)O3 (stereo not given)	T
Clc1cnc(Oc2ccc(Oc3ncc(Cl)cc3Cl)cc2)c(Cl)c1	F

Record request — test call for Cc1c2ccccc2c(CBr)c2ccccc12
T

Record request — test call for COP(=S)(NC(C)C)Oc1ccccc1C(=O)OC(C)C (stereo not given)
F

Record request — test call for C[Si]1(C)O[Si](C)(C)O[Si](C)(C)O1
F

Record request — test call for O=[N+]([O-])c1ccc2ccc3cccc([N+](=O)[O-])c3c2c1
T

Record request — test call for O=C(/C=C/c1ccccc1)c1ccc(O)cc1
F

Record request — test call for O=[N+]([O-])c1cc2c3c(ccc4cc([N+](=O)[O-])cc(c43)CC2)c1
T

Record request — test call for O=C1OC(O)C(C(Br)Br)=C1Br (stereo not given)
T

Record request — test call for CNC(=O)/C=C(\C)OP(=O)(OC)OC
F

Record request — test call for Cc1cccc(NC(=O)c2csc([N+](=O)[O-])c2)c1
T

Record request — test call for FC(F)(F)C(F)(F)C(Cl)Cl
F

Record request — test call for CCCCC/C=C/C(=O)CCc1ccc(O)c(OC)c1
F

Record request — test call for Cc1c(C(=O)O)c(O)cc2c1C(=O)c1c(O)c([C@@H]3O[C@H](CO)[C@@H](O)[C@H](O)[C@H]3O)c(O)c(O)c1C2=O
F

Record request — test call for COc1c(C(=O)O)c(=O)[nH]c2ccccc12
F

Record request — test call for CC1CCCO1 (stereo not given)
F

Record request — test call for CC\C=C/C=C\C=C/C=C\C=C/OCC(O)CO (stereo not given)
T

* * *

- Test system: CCRIS mutagenicity, Ames/micronucleus/aberration tests
- experiment.notes: CCRIS mutagenicity studies
- measurement.context: Test System: AMES SALMONELLA TYPHIMURIUM; Strain/Indicator: TA102; Metabolic Activation: RAT LIVER S-9, AROCLOR 1254; Method: STANDARD PLATE
Calls of active or inactive are those of the source. The rule behind the calls is not given here.
The categories you may choose from are 1 = active, 0 = inactive

O=C(O)C(Cl)(Cl)Cl	0

Now look at this one.
Record request — test call for CC1CCCO1 (stereo not given)
0

* * *

- Test system: CCRIS mutagenicity, Ames/micronucleus/aberration tests
- experiment.notes: CCRIS mutagenicity studies
- measurement.context: Test System: AMES SALMONELLA TYPHIMURIUM; Strain/Indicator: TA100; Metabolic Activation: RAT, LIVER, S-9, AROCLOR 1254; Method: STANDARD PLATE
- From the text: The CCRIS database contains chemical records with carcinogenicity, mutagenicity, tumor promotion, and tumor inhibition test results. It was developed by the National Cancer Institute (NCI). Data are derived from studies cited in primary journals, current awareness tools, NCI reports, and other sources. Test results have been reviewed by experts in carcinogenesis and mutagenesis. CCRIS provides historical information from the years 1985 - 2011. It is no longer updated. […]
Activity calls are given as the source filed them. No rule for the calls is given here.
The categories you may choose from are class 1 for active, class 0 for inactive

O=C1CCC2(O)c3c(ccc(O)c31)-c1ccc(O)c3c1C2C1OC1C3=O (stereo unspecified)	class 1
CN(C)c1ccc(C(=O)c2ccc(N(C)C)cc2)cc1	class 0
O=[N+]([O-])c1cnc(CO)n1CCO	class 1
ONc1ncnc2nc[nH]c12	class 0
CC(C)Cc1ccc(C(C)C(=O)O)cc1 (stereo unspecified)	class 0
COCCO	class 0

Record request — test call for COCC1O[C@@H](O[C@@H]2C(COC)OC(OC)C(OC)C2OC)C(OC)C(OC)C1OC (stereo partly specified)
class 0

Record request — test call for Nc1ncnc2c1ncn2[C@H]1CC[C@@H](CO)O1
class 0

* * *

- Tested on: CCRIS mutagenicity, Ames/micronucleus/aberration tests
- experiment.notes: CCRIS mutagenicity studies
- measurement.context: Test System: AMES SALMONELLA TYPHIMURIUM; Strain/Indicator: TA100; Metabolic Activation: NONE; Method: STANDARD PLATE
- From the text: The CCRIS database contains chemical records with carcinogenicity, mutagenicity, tumor promotion, and tumor inhibition test results. It was developed by the National Cancer Institute (NCI). Data are derived from studies cited in primary journals, current awareness tools, NCI reports, and other sources. Test results have been reviewed by experts in carcinogenesis and mutagenesis. CCRIS provides historical information from the years 1985 - 2011. It is no longer updated. […]
Calls of active or inactive are those of the source. How the calls were made is not given here.
The categories you may choose from are active, inactive

Before answering, review these 5 worked examples.
CNc1ccnc(-c2cc(N(C)C)ccn2)c1.CNc1ccnc(-c2cc(N(C)C)ccn2)c1.F[P-](F)(F)(F)(F)F.F[P-](F)(F)(F)(F)F.F[P-](F)(F)(F)(F)F.F[P-](F)(F)(F)(F)F.[NH3+]Cc1ccnc(-c2cc(C[NH3+])ccn2)c1.[Os+2]	inactive
CC(=O)O[C@H]1[C@@H]2CC(C)(C)CC2=C(C=O)[C@@]2(C=O)C[C@@]12C	inactive
N#CC(C#N)=C(C#N)C#N	inactive
O=C(c1ccc(F)cc1)[C@@H]1O[C@@H]1c1ccccc1	active
O=C(/C=C/c1ccc(Oc2ccccc2)cc1)c1ccccc1	inactive

Record request — test call for CC/C=C\C=C\CCCCCCOC(C)=O
inactive

* * *

- Test system: CCRIS mutagenicity, Ames/micronucleus/aberration tests
- experiment.notes: CCRIS mutagenicity studies
- measurement.context: Test System: AMES SALMONELLA TYPHIMURIUM; Strain/Indicator: TA98; Metabolic Activation: RAT, LIVER, S-9, AROCLOR 1254; Method: PREINCUBATION
Calls of active or inactive are those of the source. How the calls were made is not given here.
The categories you may choose from are y (active), n (inactive)

Before answering, review these 8 worked examples.
Cn1c(N)nc2ccc(C#N)cc21	y
CC(=O)C(C)O (centres undefined)	n
CNc1ccc2ncccc2c1N	n
Cc1cnc2ccc3c(nc(N[C@@H]4O[C@H](C(=O)O)[C@@H](O)[C@H](O)[C@H]4O)n3C)c2n1	n
O=C1c2ccccc2C(=O)c2c(O)cccc21	n
Cc1[nH]ccc2c1[nH]c1cc(=O)ccc12	n
Cc1cncc(C)n1	n
NS(=O)(=O)c1cc(C(=O)O)c(NCc2ccco2)cc1Cl	n

Record request — test call for ClC(Cl)Br
n

Record request — test call for Cc1ccccc1NO
n

Record request — test call for CCc1cn([C@H]2C[C@H](O)[C@@H](CO)O2)c(=O)[nH]c1=O
n

Record request — test call for C#C[C@]1(OC(=O)CCCCCC)CC[C@H]2[C@@H]3CCC4=CC(=O)CC[C@@H]4[C@H]3CC[C@@]21C
n

Record request — test call for Cc1cc(-c2ccc(N)c(C)c2)ccc1N
y

Record request — test call for Cc1cccc(OP(=O)(Oc2cccc(C)c2)Oc2cccc(C)c2)c1
n

Record request — test call for COc1cc(CCCS(=O)(=O)O)ccc1O[C@H](Cc1cccc(OC)c1O)CS(=O)(=O)O
n

Record request — test call for NCC(=O)O
n

Record request — test call for C[C@H]1SC[C@@H](C(=O)N[C@@H](Cc2cnc[nH]2)C(=O)N2CCC[C@H]2C(N)=O)NC1=O
n

Record request — test call for C=CCOCC1CO1 (centres undefined)
n

Record request — test call for Nc1cccc(N)c1
y

Record request — test call for c1ccc2c(c1)cc1ccc3cccc4c5ccccc5c2c1c34
y

Values compiled from PubChem BioAssay AID1259407.
